- test_target: Chromo domain-containing protein 1 (Saccharomyces cerevisiae (strain ATCC 204508 / S288c) (Baker's yeast)) (UniProt P32657)
- Sequence (P32657 whole entry, the tested form may be a part): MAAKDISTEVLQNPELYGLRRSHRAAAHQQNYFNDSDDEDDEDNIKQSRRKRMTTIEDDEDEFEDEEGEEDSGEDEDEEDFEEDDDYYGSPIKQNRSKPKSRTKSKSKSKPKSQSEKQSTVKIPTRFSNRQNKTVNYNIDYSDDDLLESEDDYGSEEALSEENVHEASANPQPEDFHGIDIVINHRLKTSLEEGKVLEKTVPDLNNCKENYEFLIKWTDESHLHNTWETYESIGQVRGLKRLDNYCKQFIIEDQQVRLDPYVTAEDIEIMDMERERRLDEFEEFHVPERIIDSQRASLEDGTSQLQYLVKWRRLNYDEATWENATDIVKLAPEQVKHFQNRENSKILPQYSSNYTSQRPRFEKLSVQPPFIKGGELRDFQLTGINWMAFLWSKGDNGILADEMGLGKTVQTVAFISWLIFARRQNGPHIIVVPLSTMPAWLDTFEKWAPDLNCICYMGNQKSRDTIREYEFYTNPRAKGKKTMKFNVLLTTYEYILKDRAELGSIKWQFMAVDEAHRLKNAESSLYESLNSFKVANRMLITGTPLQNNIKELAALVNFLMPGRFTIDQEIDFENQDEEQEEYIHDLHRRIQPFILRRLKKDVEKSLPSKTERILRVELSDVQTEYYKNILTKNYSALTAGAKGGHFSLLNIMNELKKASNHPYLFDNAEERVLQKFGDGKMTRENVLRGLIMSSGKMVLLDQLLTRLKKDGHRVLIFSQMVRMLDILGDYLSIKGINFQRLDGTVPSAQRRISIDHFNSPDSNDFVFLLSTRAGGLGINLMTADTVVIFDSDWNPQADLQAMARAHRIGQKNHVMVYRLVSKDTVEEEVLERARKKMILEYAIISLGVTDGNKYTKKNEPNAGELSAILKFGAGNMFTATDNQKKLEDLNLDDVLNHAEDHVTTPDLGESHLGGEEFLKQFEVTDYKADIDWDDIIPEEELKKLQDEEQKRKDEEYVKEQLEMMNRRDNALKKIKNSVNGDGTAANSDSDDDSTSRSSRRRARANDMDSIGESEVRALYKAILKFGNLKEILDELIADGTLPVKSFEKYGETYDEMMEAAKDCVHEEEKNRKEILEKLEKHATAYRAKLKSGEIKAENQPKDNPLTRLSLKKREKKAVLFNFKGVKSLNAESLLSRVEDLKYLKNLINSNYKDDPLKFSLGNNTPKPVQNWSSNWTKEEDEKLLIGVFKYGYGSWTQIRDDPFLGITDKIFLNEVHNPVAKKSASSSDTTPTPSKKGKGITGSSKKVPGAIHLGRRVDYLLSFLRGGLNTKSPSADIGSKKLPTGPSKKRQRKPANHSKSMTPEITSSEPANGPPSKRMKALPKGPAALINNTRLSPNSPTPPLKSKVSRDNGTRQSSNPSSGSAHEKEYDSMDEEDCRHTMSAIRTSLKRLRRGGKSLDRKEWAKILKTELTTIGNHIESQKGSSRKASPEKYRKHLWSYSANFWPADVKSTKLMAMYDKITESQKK
- experiment_description: ScCHD-1 Enzyme Inhibition Assay; note: in the data most compounds retested in dose-response had high values
- Format: functional
- Parameters: scale not given: direction of the effect not stated beside the values
- condition_summary: 30 µM
In this section, each of the compounds is paired with its reported Percent Effect.
Write the value in % as a bare number.

In the examples that follow, each entry is paired with its recorded Percent Effect.
                                   compound  units_text  reported_result
0  Cc1nc(C(C)C)sc1C(=O)NS(=O)(=O)c1ccc(C#N)cc1           %            -5.85
1  c1ccc2sc(CN3CCOC(Cn4cncn4)C3)nc2c1 (configuration not stated)           %             4.42
2        Cc1cc(CNCc2c(C)nn(C)c2N2CCOCC2)no1           %              -11
3     Cc1nn(C)c(N(C)C)c1CNCc1cccnc1-n1cncn1           %            -7.57
4  Cn1cnnc1C1CCCN(C(=O)c2n[nH]c3ccccc23)C1 (configuration not stated)           %            -21.5
5  CNC(=O)c1cccc(CNC(=O)C2CC(=O)N(CCN(C)C)C2)c1 (configuration not stated)           %            -3.88

// moving on: another record for Percent Effect
Req: Which measured Percent Effect value corresponds to O=C(CC1CN(Cc2ccccc2)CCO1)NC1CCCC1 (configuration not stated) ?
Resp: -6.96

* * *

- test_target: Tyrosyl-tRNA synthetase, putative (Trypanosoma cruzi (strain CL Brener))
- Sequence (whole entry): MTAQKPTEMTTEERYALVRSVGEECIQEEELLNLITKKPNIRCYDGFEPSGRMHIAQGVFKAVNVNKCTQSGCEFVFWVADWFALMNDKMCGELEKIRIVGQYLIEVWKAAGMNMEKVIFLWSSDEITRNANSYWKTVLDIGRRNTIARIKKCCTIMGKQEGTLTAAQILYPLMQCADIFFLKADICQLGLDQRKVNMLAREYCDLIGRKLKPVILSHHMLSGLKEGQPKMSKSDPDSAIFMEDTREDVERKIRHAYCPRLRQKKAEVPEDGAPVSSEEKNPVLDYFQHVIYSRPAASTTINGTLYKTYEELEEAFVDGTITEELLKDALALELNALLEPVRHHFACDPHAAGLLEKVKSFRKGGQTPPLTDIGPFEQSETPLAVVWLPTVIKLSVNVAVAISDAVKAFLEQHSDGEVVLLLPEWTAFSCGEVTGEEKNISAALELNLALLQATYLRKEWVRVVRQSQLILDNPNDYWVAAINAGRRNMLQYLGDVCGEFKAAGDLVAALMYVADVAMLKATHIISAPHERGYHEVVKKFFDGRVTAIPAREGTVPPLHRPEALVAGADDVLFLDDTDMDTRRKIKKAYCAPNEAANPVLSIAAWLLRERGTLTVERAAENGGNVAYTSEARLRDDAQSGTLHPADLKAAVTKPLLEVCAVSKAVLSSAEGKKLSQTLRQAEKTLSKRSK
- experiment_description: Trypanosoma cruzi tyrosyl tRNA synthetase (TcYRS) SOP
- Format: functional
- Parameters: scale not given: direction of the effect not stated beside the values
- condition_summary: 30 µM
In this section, each of the compounds is paired with its reported Percent Effect.
Write the value in % as a bare number.

In the examples that follow, each entry is paired with its recorded Percent Effect.
>>> df
                                   compound                               test_target   quantity_name  reported_result
0  CC(C)CCOCCNC(=O)Nc1cc(C(F)(F)F)c[nH]c1=O  Tyrosyl-tRNA synthetase, putative (Trypanosoma cruzi (strain CL Brener))  Percent Effect             13.4
1  Cc1cccc(-c2nc(CN(Cc3cccs3)CC3CCCO3)no2)c1 (centres undefined)  Tyrosyl-tRNA synthetase, putative (Trypanosoma cruzi (strain CL Brener))  Percent Effect            -17.7
2  CN(C)C(=O)CO[C@H]1CN(Cc2ccc(F)cc2)[C@@H]2CCCO[C@H]12  Tyrosyl-tRNA synthetase, putative (Trypanosoma cruzi (strain CL Brener))  Percent Effect             11.1
3  CCOC(=O)C1CCN(C(=O)Cn2ccc3cc(Br)ccc32)CC1  Tyrosyl-tRNA synthetase, putative (Trypanosoma cruzi (strain CL Brener))  Percent Effect             10.3
4  CC(NCc1ccccc1Br)c1ccc2[nH]c(=O)[nH]c2c1 (centres undefined)  Tyrosyl-tRNA synthetase, putative (Trypanosoma cruzi (strain CL Brener))  Percent Effect             6.17

Req: API: value(readout=Percent Effect, system=Tyrosyl-tRNA synthetase, putative (Trypanosoma cruzi (strain CL Brener))) for record Cc1cc(C)n(CC2CN(CC(=O)NC3CCCC3)CCO2)n1 (centres undefined)
Resp: 2.44

Req: Record: CCc1nc(NCCCn2cccn2)c2c(n1)c(C)nn2C
Resp: 12.8

Req: Record: Cn1cnc2c1CCN(Cc1nc(COc3ccc(F)cc3)no1)C2
Resp: -6.17

Req: Record: O=C1CCCN1CC1CN(C(=O)CC2CCCC2)Cc2nccn2C1 (centres undefined)
Resp: 11.5

Req: Record: Fc1cnc(N2C[C@H]3CCC[C@@]3(COc3ccccn3)C2)nc1
Resp: 2.56
